target.system: H-Ras (Homo sapiens)
assay.remarks: Multiplex bead-based flow cytometry dose-response of fluorescent guanine nucleotide binding
assay.setup: read-out: EC50 H-Ras; BODIPY-FL GTP binding; 2 h at 4°C
measurement.label: EC50 (µM)

Consider the worked cases shown below.
molecule	EC50 [µM]
CC(C)(C)C1Cc2c(sc(NC(=S)NC(=O)c3ccccc3)c2C(=O)O)CO1 (stereo not drawn) [CID 53377399]	0.14
Cc1ccc(NC(=O)Nc2sc3c(c2C(=O)O)CCN(C)C3)cc1 [CID 46916259]	30.2

P. COc1cccc(C(=O)NC(=S)Nc2sc3c(c2C(=O)O)CC(C)(C)OC3)c1 [Compound 7]
Q. Cc1cccc(C(=O)NC(=S)Nc2sc3c(c2C(=O)O)CC(C)(C)OC3)c1 [CID 53377400]
Prompt: Identify the entry with the smaller EC50: P or Q . Let me know the label of the one you choose.
Completion: P

====

target.system: Cdc42 Q61L (Homo sapiens, UniProt P60953, Q61L)
Sequence (P60953 whole entry Q61L): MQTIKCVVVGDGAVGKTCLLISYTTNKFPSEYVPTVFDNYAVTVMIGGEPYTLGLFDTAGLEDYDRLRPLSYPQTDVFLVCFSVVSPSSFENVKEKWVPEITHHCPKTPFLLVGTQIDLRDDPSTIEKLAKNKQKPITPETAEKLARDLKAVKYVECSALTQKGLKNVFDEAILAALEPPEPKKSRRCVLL
assay.remarks: Multiplex bead-based flow cytometry dose-response of fluorescent guanine nucleotide binding
assay.setup: read-out: EC50 Cdc42 Q61L; BODIPY-FL GTP binding; 2 h at 4°C
pEC50: −log10 of the molar value.
measurement.label: pEC50

a. CC1(C)Cc2c(sc(NC(=S)NC(=O)c3ccco3)c2C(=O)O)CO1
b. CC1(C)Cc2c(sc(NC(=S)NC(=O)c3cccc(Br)c3)c2C(=O)O)CO1
c. COc1ccccc1C(=O)NC(=S)Nc1sc2c(c1C(=O)O)CC(C)(C)OC2
d. CC1(C)Cc2c(sc(NC(=S)NC(=O)c3ccc(Br)cc3)c2C(=O)O)CO1
e. CC1(C)Cc2c(sc(NC(=S)NC(=O)c3ccc(F)cc3)c2C(=O)O)CO1
Prompt: Arrange the 5 entries by pEC50 so the values rise. List each label, following the requested order.
Completion: b, d, c, e, a

====

target.system: H-Ras (Homo sapiens, UniProt P01112)
Sequence (P01112 whole entry): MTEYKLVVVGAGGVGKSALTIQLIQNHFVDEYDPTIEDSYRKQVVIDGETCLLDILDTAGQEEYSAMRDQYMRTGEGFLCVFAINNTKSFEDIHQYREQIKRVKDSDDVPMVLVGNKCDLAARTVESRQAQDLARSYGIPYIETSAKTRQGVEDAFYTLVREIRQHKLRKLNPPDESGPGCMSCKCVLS
assay.remarks: Multiplex bead-based flow cytometry dose-response of fluorescent guanine nucleotide binding
assay.setup: EC50 Ras, without incubation before BODIPY-FL GTP
measurement.label: pEC50
In textbook form, pEC50 equals minus log to base ten of the concentration in mol/L.

Prompt: // returns reported pEC50 for input `CC1(C)Cc2c(sc(NC(=S)NC(=O)c3ccccc3)c2C(=O)O)CO1`
Completion: 6.89

====

target.system: Rac1 (Homo sapiens, UniProt P63000)
assay.remarks: Multiplex bead-based flow cytometry dose-response of fluorescent guanine nucleotide binding
assay.setup: EC50 Rac1, BODIPY-FL GTP binding; 2 h at 4°C; 1 mM MgCl2
measurement.label: pEC50
In textbook form, pEC50 equals minus log to base ten of the concentration in mol/L.

Prompt: // returns reported pEC50 for input `CC1(C)Cc2c(sc(NC(=S)NC(=O)c3ccccc3)c2C(=O)O)CO1`
Completion: 7.21

====

target.system: H-Ras G12V (Homo sapiens, UniProt P01112, G12V)
Sequence (P01112 whole entry G12V): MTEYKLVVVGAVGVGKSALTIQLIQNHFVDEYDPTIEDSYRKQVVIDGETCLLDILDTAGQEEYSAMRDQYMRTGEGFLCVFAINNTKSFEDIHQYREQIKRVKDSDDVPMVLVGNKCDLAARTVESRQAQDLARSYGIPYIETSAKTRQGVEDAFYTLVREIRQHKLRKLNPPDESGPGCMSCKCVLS
assay.remarks: Multiplex bead-based flow cytometry dose-response of fluorescent guanine nucleotide binding
assay.setup: EC50 H-Ras G12V, concentration dependence on BODIPY-FL GDP
measurement.label: EC50 (nM)
# number only, unit nM dropped from output

Prompt: Which measured EC50 belongs to `CC1(C)Cc2c(sc(NC(=S)NC(=O)c3ccccc3)c2C(=O)O)CO1` , tested on H-Ras G12V (Homo sapiens, UniProt P01112, G12V)?
Completion: 260

====

target.system: Cdc42 Q61L (Homo sapiens, UniProt P60953, Q61L)
assay.remarks: Multiplex bead-based flow cytometry dose-response of fluorescent guanine nucleotide binding
assay.setup: read-out: EC50 Cdc42 Q61L; BODIPY-FL GTP binding; 2 h at 4°C
pEC50: −log10 of the molar value.
measurement.label: pEC50

Consider the worked cases shown below.
compound	recorded.value
Cc1ccccc1C(=O)NC(=S)Nc1sc2c(c1C(=O)O)CC(C)(C)OC2 [Compound 11]	5.87
CC1(C)Cc2c(sc(NC(=O)NC(=O)c3ccccc3)c2C(=O)O)CO1 [Compound 6]	6.33
CC1(C)Cc2c(sc(NC(=S)NC(=O)c3cccc(F)c3)c2C(=O)O)CO1 [CID 53301930]	5.66
CC1(C)Cc2c(sc(NC(=S)NC(=O)c3ccccc3Br)c2C(=O)O)CO1 [Compound 10]	4.83
O=C(NC(=S)Nc1sc2c(c1C(=O)O)CCOC2)c1ccccc1 [Compound 3]	6.89
CC1Cc2c(sc(NC(=S)NC(=O)c3ccccc3)c2C(=O)O)CO1 (centres unmarked) [CID 46916263]	5.39

a. CC1(C)CCc2sc(NC(=S)NC(=O)c3ccccc3)c(C(=O)O)c2C1 [CID 53301937]
b. CCC1(C)Cc2c(sc(NC(=S)NC(=O)c3ccccc3)c2C(=O)O)CO1 (centres unmarked) [CID 53377401]
c. CC(C)(C)C1Cc2c(sc(NC(=S)NC(=O)c3ccccc3)c2C(=O)O)CO1 (centres unmarked) [CID 53377399]
d. Cc1cccc(C(=O)NC(=S)Nc2sc3c(c2C(=O)O)CC(C)(C)OC3)c1 [CID 53377400]
Prompt: Rank items: key pEC50, increasing. List each label, following the requested order.
Completion: d, c, a, b

====

target.system: Cdc42 Q61L (Homo sapiens, UniProt P60953, Q61L)
assay.remarks: Multiplex bead-based flow cytometry dose-response of fluorescent guanine nucleotide binding
assay.setup: EC50 Cdc42 Q61L, BODIPY-FL GTP binding; 2 h at 4°C
measurement.label: EC50 (nM)
# number only, unit nM dropped from output

Prompt: // returns reported EC50 for input `CC1(C)Cc2c(sc(NC(=S)NC(=O)c3ccccc3)c2C(=O)O)CO1`
Completion: 47

====

target.system: UniProt:P60953
assay.remarks: Multiplex bead-based flow cytometry dose-response of fluorescent guanine nucleotide binding
assay.setup: EC50 Cdc42_2, with 2 h incubation before BODIPY-FL GTP; Cdc42 from Cytoskeleton
measurement.label: EC50 (µM)
# number only, unit µM dropped from output

Prompt: // returns reported EC50 for input `CC1(C)Cc2c(sc(NC(=S)NC(=O)c3ccccc3)c2C(=O)O)CO1`
Completion: 3.71

====

target.system: RhoA (Homo sapiens)
Sequence (P61586 whole entry): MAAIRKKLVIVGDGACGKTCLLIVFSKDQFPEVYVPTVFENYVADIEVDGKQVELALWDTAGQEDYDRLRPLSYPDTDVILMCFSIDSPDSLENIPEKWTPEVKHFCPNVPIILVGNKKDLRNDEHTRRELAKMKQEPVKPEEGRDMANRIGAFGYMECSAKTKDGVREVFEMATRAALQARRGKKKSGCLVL
assay.remarks: Multiplex bead-based flow cytometry dose-response of fluorescent guanine nucleotide binding
assay.setup: EC50 RhoA, BODIPY-FL GTP binding; 2 h at 4°C; 1 mM MgCl2
measurement.label: EC50 (nM)
# number only, unit nM dropped from output

Prompt: // returns reported EC50 for input CC1(C)Cc2c(sc(NC(=S)NC(=O)c3ccccc3)c2C(=O)O)CO1 [Compound 1]
Completion: 62

====

target.system: H-Ras G12V (Homo sapiens, UniProt P01112, G12V)
assay.remarks: Multiplex bead-based flow cytometry dose-response of fluorescent guanine nucleotide binding
assay.setup: read-out: EC50 H-Ras G12V; BODIPY-FL GTP binding; 2 h at 4°C
measurement.label: EC50 (µM)

Cc1ccccc1C(=O)NC(=S)Nc1sc2c(c1C(=O)O)CC(C)(C)OC2 0.38

A. O=C(NC(=S)Nc1sc2c(c1C(=O)O)CCOC2)c1ccccc1
B. Cc1ccc(NC(=O)Nc2sc3c(c2C(=O)O)CCN(C)C3)cc1
C. CC1(C)Cc2c(sc(NC(=S)NC(=O)c3cccc(F)c3)c2C(=O)O)CO1
D. Cc1ccc(C(=O)NC(=S)Nc2sc3c(c2C(=O)O)CC(C)(C)OC3)cc1
Prompt: Kindly order the items shown according to EC50, from the highest value down. List each label, following the requested order.
Completion: B, C, D, A

====

target.system: Rac1 Q61L (Homo sapiens, UniProt P63000, Q61L)
assay.remarks: Multiplex bead-based flow cytometry dose-response of fluorescent guanine nucleotide binding
assay.setup: read-out: EC50 Rac1 Q61L; BODIPY-FL GTP binding; 2 h at 4°C
measurement.label: EC50 (nM)

Consider the worked cases shown below.
compound	readout.units	EC50
CC1Cc2c(sc(NC(=S)NC(=O)c3ccccc3)c2C(=O)O)CO1 (stereo not drawn)	nM	180
COc1cccc(C(=O)NC(=S)Nc2sc3c(c2C(=O)O)CC(C)(C)OC3)c1	nM	220
COc1ccc(C(=O)NC(=S)Nc2sc3c(c2C(=O)O)CC(C)(C)OC3)cc1	nM	150
CC1(C)CCc2sc(NC(=S)NC(=O)c3ccccc3)c(C(=O)O)c2C1	nM	77
O=C(NC(=S)Nc1sc2c(c1C(=O)O)CCOC2)c1ccccc1	nM	230

P. CC1(C)Cc2c(sc(NC(=S)NC(=O)c3ccc(F)cc3)c2C(=O)O)CO1
Q. CC1(C)Cc2c(sc(NC(=S)NC(=O)c3ccco3)c2C(=O)O)CO1
Prompt: Identify the entry with the smaller EC50: P or Q . Let me know the label of the one you choose.
Completion: Q

====

target.system: Cdc42 (Homo sapiens, UniProt P60953)
Sequence (P60953 whole entry): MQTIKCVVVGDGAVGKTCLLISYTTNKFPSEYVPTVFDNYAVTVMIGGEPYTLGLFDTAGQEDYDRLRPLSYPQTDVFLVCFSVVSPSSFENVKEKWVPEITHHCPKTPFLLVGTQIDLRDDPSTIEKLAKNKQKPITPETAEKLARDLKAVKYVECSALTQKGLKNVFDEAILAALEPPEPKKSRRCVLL
assay.remarks: Multiplex bead-based flow cytometry dose-response of fluorescent guanine nucleotide binding
assay.setup: EC50 Cdc42, concentration dependence on BODIPY-FL GDP
measurement.label: pEC50
In textbook form, pEC50 equals minus log to base ten of the concentration in mol/L.

Prompt: // returns reported pEC50 for input CC1(C)Cc2c(sc(NC(=S)NC(=O)c3ccccc3)c2C(=O)O)CO1 [Compound 1]
Completion: 6.38
